Tested on: PBMC
Measurement Protocol: Cytotoxicity against human PBMC at 1 to 100 uM after 48 hrs by flow cytometry
Type: cell-based
Property Label: Activity

O=C(Nc1ccccc1)c1cc2cccnc2[nH]1 : Non-toxic
CCOC(=O)c1ccc(S(=O)(=O)CN2C(=O)C3Cc4ccccc4CN3S2(=O)=O)cc1 (centres undefined) : Non-toxic
O=C(Nc1cccc(S(=O)(=O)N2CCN(c3ccccc3)CC2)c1)c1cc2cccnc2[nH]1 : Non-toxic
O=C1c2cc3cccnc3n2C(=O)N1S(=O)(=O)c1ccccc1 : Non-toxic
O=C(Nc1cccc(S(=O)(=O)N2CCOCC2)c1)c1cc2cccnc2[nH]1 : Non-toxic
O=C1C2Cc3ccccc3N2C(=O)N1S(=O)(=O)c1ccc2ccccc2c1 (centres undefined) : Non-toxic
O=C(Nc1cccc(S(=O)(=O)N2CCSCC2)c1)c1cc2cccnc2[nH]1 : Non-toxic
Cc1ccc(S(=O)(=O)N2C(=O)c3cc4ccccc4n3C2=O)cc1 : Non-toxic

Let's switch to this compound now.
Name the recorded Activity of the item O=C(Nc1ccccc1)c1cc2cccnc2n1S(=O)(=O)c1ccccc1 in your answer.
Non-toxic

Values were extracted from ChEMBL document CHEMBL1667775.
